conditions: in ethanol, 293.15 K
Attribute Measured: solubility (mole fraction)

test_smiles=CCOC(=O)Cc1c(C(=O)OCC)sc(N(CC(=O)OCC)CC(=O)OCC)c1C#N attribute_measured="solubility (mole fraction)" meas_value=0.0012

---

conditions: in methanol, 293.15 K
Attribute Measured: solubility (mole fraction)

test_smiles=CCOC(=O)Cc1c(C(=O)OCC)sc(N(CC(=O)OCC)CC(=O)OCC)c1C#N meas_value=0.00265

---

settings: in n-butanol, 308.15 K
Attribute Measured: solubility (mole fraction)

test_smiles=CCOC(=O)Cc1c(C(=O)OCC)sc(N(CC(=O)OCC)CC(=O)OCC)c1C#N meas_value=0.00316
